# Method Description: Stability of the compound in RPMI medium assessed as compound degradation at 1 uM measured <24 hrs by LC-MS/MS analysis
# Format: physicochemical
# Test Conditions: read-out: Drug degradation
Measurement Type: degraded at 24 h, 1 µM (%)
Give the number; % is assumed, so skip it.

[Q] Which degraded at 24 h, 1 µM value is on record for CC(C)C[C@H](NC(=O)[C@@H](CCCCNC(=O)CCCCCNC(=O)CCC(=O)OC[C@H]1O[C@@H](n2ccc(N)nc2=O)C(F)(F)[C@@H]1O)NC(=O)[C@H](Cc1ccc(O)cc1)NC(=O)[C@H](CO)NC(=O)[C@H](Cc1c[nH]c2ccccc12)NC(=O)[C@H](Cc1cnc[nH]1)NC(=O)[C@@H]1CCC(=O)N1)C(=O)N[C@@H](CCCNC(=N)N)C(=O)N1CCC[C@H]1C(=O)NCC(N)=O ?
[A] 100

The reported measurements were obtained from ChEMBL document CHEMBL4400527.
